Recorded values, source patent US20150329642A1.

- Target or system: T1, cMetECDHis (human, UniProt P08581 25-932, limits assumed, biotinylated in the cross-block ELISA of Example 17)
- T1 construct: Expressed in HEK-293F cells; also called soluble cMetECDHis; biotinylated cMetECDHis
- Assay notes: cross-block ELISA; competitor 022
Record form. Attribute: residual binding, % of no competitor. Fill in for each entry.
Express your answer in %, writing the number without its unit.

Briefly, residual binding, % of no competitor measured for anti-c-Met HuMab 006 (IgG1) (antibody, V domains shown, also called TH1016-006; PC1016-006) VH: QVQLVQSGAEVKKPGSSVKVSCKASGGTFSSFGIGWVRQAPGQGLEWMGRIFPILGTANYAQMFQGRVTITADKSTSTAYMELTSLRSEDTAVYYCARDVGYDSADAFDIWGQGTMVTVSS VL: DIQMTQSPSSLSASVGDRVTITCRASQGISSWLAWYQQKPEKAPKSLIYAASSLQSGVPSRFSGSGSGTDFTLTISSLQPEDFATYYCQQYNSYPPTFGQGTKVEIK : 4.6

Briefly, residual binding, % of no competitor measured for anti-c-Met HuMab 008 (IgG1) (antibody, V domains shown, also called TH1016-008; PC1016-008) VH: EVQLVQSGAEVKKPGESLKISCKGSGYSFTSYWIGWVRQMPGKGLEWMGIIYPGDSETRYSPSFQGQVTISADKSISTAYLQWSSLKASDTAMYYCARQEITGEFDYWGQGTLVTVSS VL: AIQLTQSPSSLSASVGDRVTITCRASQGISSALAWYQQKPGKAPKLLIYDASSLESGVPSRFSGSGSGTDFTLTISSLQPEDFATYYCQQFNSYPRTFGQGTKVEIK : 82.1
